Data origin, for the record: PubChem BioAssay (NCI)

// reported TGI for each item listed
system: SF-268 CNS; assay: NCI tumour cell line growth inhibition, 48 h

- molecule: "N=c1oc2ccc(Cl)cc2cc1C(=O)NC1CCCCC1"
  property.name: "TGI"
  result: "> 100 µM"
- molecule: "CC(=O)c1cccc(NC(=O)/C(=N\\NC(=S)NN)C2C(=O)Nc3ccccc3S2=O)c1 (stereo unspecified)"
  property.name: "TGI"
  result: "> 100 µM"
- molecule: "COc1ccc2oc3c(ccc[n+]3C)c(=O)c2c1"
  property.name: "TGI"
  result: "> 100 µM"

Next up:
Given N#CC12CC3(CCC1CCC1(C2)OCCO1)OCCO3 (stereo unspecified) , state its recorded TGI.
> 100 µM
